Details: in n-butanol, 277.95 K
PROPERTY: solubility (mole fraction)
Enter a number only.

// fetch solubility (mole fraction) given entry CCOC(=O)C1=C(C)NC(C)=C(C(=O)OCC)C1
0.000859

====

Details: in n-propanol, 272.15 K
PROPERTY: solubility (mole fraction)
The answer should be written as a number, with no unit following it.

Read the entry CCOC(=O)C1=C(C)NC(C)=C(C(=O)OCC)C1 and write its reported solubility (mole fraction).
0.000513

====

Conditions: in acetonitrile, 278.15 K
PROPERTY: solubility (mole fraction)

Specify measured solubility (mole fraction) for CCOC(=O)C1=C(C)NC(C)=C(C(=O)OCC)C1 .
0.000356
